target-entity: full length SGK1 (Homo sapiens)
Construct: 125 μM full length SGK1 (Life Technologies Part #PR7358A); purchased Life Technologies PR7358A
Sequence (O00141 whole entry): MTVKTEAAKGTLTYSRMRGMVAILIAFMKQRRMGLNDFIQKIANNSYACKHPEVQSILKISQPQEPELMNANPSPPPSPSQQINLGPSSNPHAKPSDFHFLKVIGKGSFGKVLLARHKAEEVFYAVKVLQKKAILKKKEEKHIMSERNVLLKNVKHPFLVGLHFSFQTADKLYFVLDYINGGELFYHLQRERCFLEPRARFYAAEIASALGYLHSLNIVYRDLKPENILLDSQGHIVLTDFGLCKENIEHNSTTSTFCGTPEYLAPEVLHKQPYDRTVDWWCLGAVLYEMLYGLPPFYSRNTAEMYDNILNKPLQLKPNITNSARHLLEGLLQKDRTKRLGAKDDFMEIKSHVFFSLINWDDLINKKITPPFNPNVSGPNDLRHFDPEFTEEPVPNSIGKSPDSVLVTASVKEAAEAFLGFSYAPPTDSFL
protocol: SGK1 inhibition Assay A (Caliper LabChip electrophoretic separation of fluorescent peptide substrate and phosphorylated product)
Format: biochemical
condition-info: Assay A; 20 μM ATP, 40 min incubation; read-out: SGK1 IC50
Where a name gives a salt, the structure may show the parent alone.
quantity-kind: pIC50
Hey, just a heads up that pIC50 is the negative log base 10 of the concentration in molar.

In: Consider the molecule shown here: CC(O)c1cccc(-c2cc(N3CCC[C@@H](NC(=O)c4ccc(Cl)s4)C3)c3c(N)ncnn23)c1 (stereo partly shown) What is its recorded pIC50?
Out: 7.85

In: Consider the molecule shown here: COC(=O)N1CC=C(c2cc(N3CCC[C@@H](NC(=O)c4cc5cc(F)ccc5[nH]4)C3)c3c(N)ncnn23)C1 [Example 499] What is its recorded pIC50?
Out: 6.92

In: Consider the molecule shown here: CS(=O)(=O)c1ccc(-c2cc(N3CCC[C@@H](NC(=O)c4ccccc4OCCO)C3)c3c(N)ncnn23)cc1 What is its recorded pIC50?
Out: 8.00

In: Consider the molecule shown here: COC(=O)N1CC=C(c2cc(N3CCC[C@@H](NC(=O)c4sc(Cl)cc4OC4CCN(C)CC4)C3)c3c(N)ncnn23)C1 What is its recorded pIC50?
Out: 8.70

In: Consider the molecule shown here: Nc1ncnn2c(-c3ccc(Cl)cc3)cc(N3CCC[C@@H](NC(=O)c4ccc(Cl)s4)C3)c12 What is its recorded pIC50?
Out: 7.43

In: Consider the molecule shown here: CC(=O)N1CC=C(c2cc(N3CCC[C@@H](NC(=O)c4cc5c(s4)CCNC5)C3)c3c(N)ncnn23)C1 [Example 815, TFA salt] What is its recorded pIC50?
Out: 6.98

In: Consider the molecule shown here: CS(=O)(=O)N1C=C(c2cc(N3CCC[C@@H](NC(=O)c4ccnc(F)c4)C3)c3c(N)ncnn23)CC1 [Example 118, TFA] What is its recorded pIC50?
Out: 6.89
